Value source: patent US20180334496A1

Target Or System: T1, serum purified human Complement Factor D (human, UniProt P00746 26-253)
T1 construct: Serum purified protein flowed over the captured antibodies; also called CFD; human CFD
T1 sequence (P00746 26-253): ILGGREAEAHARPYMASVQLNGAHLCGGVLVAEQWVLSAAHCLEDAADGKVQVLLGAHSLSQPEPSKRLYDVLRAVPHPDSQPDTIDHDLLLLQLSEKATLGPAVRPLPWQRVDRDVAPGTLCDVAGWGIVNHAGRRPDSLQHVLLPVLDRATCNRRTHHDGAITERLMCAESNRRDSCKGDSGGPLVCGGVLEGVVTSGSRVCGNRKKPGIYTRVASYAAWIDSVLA
Assay Summary: SPR Biacore, antibody on protein A chip, single cycle kinetics, 37 C;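 also: antibodies captured on the protein A surface to roughly 70 RU in HBS-EP+ buffer, with rate and affinity constants fitted using BIAevaluation software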
Parameter: kon. Scope: all listed entries.
API: value field is a number in M⁻¹ s⁻¹; no unit string.

Observe how each entry below is paired with its result.
34I54I59D / 32W60W101V (antibody, V domains shown, KCD119 TAF variant; full antibody captured on protein A) VH: EVQLVESGGGLVQPGGSLRLSCAASGYTFTDYYINWVRQAPGKGLEWIGDINPITGDTDYNADFKRRFTFSLDTSKSTAYLQMNSLRAEDTAVYYCTREGPSFAYWGQGTLVTVSS VL: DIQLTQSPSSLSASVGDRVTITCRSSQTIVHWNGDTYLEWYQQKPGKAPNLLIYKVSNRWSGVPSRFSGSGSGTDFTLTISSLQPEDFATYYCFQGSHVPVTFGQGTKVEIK : 1.29e+07
31S54V59D / 54R101V (antibody, V domains shown, KCD119 TAF variant) VH: EVQLVESGGGLVQPGGSLRLSCAASGYTFTSYYMNWVRQAPGKGLEWIGDINPVTGDTDYNADFKRRFTFSLDTSKSTAYLQMNSLRAEDTAVYYCTREGPSFAYWGQGTLVTVSS VL: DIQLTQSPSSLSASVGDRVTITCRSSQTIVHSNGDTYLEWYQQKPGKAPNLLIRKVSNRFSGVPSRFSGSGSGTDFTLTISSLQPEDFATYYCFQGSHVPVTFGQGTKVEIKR : 3.33e+07
31S54I59D / 50I60W101V (antibody, V domains shown, KCD119 TAF variant; full antibody captured on protein A) VH: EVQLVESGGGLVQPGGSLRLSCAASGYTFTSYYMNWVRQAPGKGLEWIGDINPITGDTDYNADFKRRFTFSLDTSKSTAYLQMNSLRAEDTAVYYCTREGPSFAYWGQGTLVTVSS VL: DIQLTQSPSSLSASVGDRVTITCRSSQTIVHSNGDTYLEWYQQKPGKAPILLIYKVSNRWSGVPSRFSGSGSGTDFTLTISSLQPEDFATYYCFQGSHVPVTFGQGTKVEIK : 9.26e+06

Find the measured kon of 54V / 101V (antibody, V domains shown, KCD119 TAF variant; full antibody captured on protein A) VH: EVQLVESGGGLVQPGGSLRLSCAASGYTFTDYYMNWVRQAPGKGLEWIGDINPVTGDTSYNADFKRRFTFSLDTSKSTAYLQMNSLRAEDTAVYYCTREGPSFAYWGQGTLVTVSS VL: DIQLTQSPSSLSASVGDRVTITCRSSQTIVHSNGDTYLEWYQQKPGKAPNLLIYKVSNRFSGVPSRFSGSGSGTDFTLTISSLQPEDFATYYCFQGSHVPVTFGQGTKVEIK and report it.
1.11e+07

Find the measured kon of 31S34I54I59D / 32W60W101V (antibody, V domains shown, KCD119 TAF variant; full antibody captured on protein A) VH: EVQLVESGGGLVQPGGSLRLSCAASGYTFTSYYINWVRQAPGKGLEWIGDINPITGDTDYNADFKRRFTFSLDTSKSTAYLQMNSLRAEDTAVYYCTREGPSFAYWGQGTLVTVSS VL: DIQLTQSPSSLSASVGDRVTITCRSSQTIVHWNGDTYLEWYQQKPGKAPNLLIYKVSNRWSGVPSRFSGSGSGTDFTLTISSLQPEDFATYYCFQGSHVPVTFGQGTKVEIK and report it.
6.67e+06
